Source listed as PubChem BioAssay AID814.

Test system: cell imaging, HER kinase expression, mean fluorescence
Assay: HER kinase expression suppression, imaging readout – mean fluorescence, total cell number, dose response (AID 814)
The source made the active and inactive calls. The rule behind the calls is not given here.
Outcome field: choose from active, inactive

> print(dat)
                                   compound     cat
1       CCCCS(=O)(=O)/C=C\C=C/S(=O)(=O)CCCC  active
2  Cn1c(C(C#N)C(=O)c2ccco2)nc2ccccc21 (centres undefined)  active
3  O=S(=O)(CC(CN1CCCC1)N1CCCC1)c1ccc2ccccc2c1 (centres undefined)  active
4  CN(C)CC(C(=O)c1ccccc1)c1ccccc1 (centres undefined)  active
5             Cc1nc2nc(-c3ccco3)nn2c(C)c1Cl  active
6  Cc1ccc(-c2csc3ncnc(Sc4nnc(CN5CCCCCC5=O)o4)c23)cc1  active
7           CCCn1c(NC(=O)c2ccco2)nc2ccccc21  active
8  O=S1(=O)C=C(Sc2nnc(-c3ccccc3)o2)c2ccccc21  active

Query :: What call does the record list for CS(=O)(=O)c1nc(-c2cccs2)cc(C(F)(F)F)n1 ?
Result :: inactive

Query :: Just curious, what result did CSC1=N/C(=C\C=C\c2cccs2)C(=O)S1 get here?
Result :: inactive

Query :: Dear colleague, could you share the recorded outcome for CS(=O)(=O)c1nc(-c2ccccc2)cc(C(F)(F)F)n1 when you have a moment?
Result :: inactive

Query :: For CCN1/C(=C/C(=O)c2ccco2)Sc2ccccc21 , what call appears in the results of this test?
Result :: active

Query :: Given Cc1nn2c(-c3ccco3)nnc2c2ccccc12 , state the outcome it received in this test.
Result :: active

Query :: Dear all, I need the recorded test outcome for COC(=O)c1sccc1NC(=O)c1ccc(Cl)s1 , thank you.
Result :: active

Query :: Lab log entry: Cc1ccc(CNC(=O)c2cc3c(-c4ccc(Cl)cc4)nn(C)c3s2)o1 — outcome as called in the assay?
Result :: inactive

Query :: Hello, I am checking results. What call was entered for O=S1(=O)C=C(Sc2nc3cc(Cl)ccc3o2)c2ccccc21 ?
Result :: inactive
